# credit: PubChem BioAssay

Entries and their z-score values follow.
ASSAY_COMMENT: budding yeast growth modifiers under rapamycin – strain BY4716, OD600, 96 h, primary screen (AID 1091); further: test concentration not given here
ASSAY_CONTEXT: S. cerevisiae BY4716 + rapamycin, higher = more signal, called active from +8 up or from −8 down
Please reply with the value in numeric form only.

Solved entries:
C=C(CCCC)/C(=C/C[C@@H](OC(C)=O)c1cccc(OCCO)c1)c1cnc2ccccc2c1 = 0.142
O=C1C2C=CC(C(O)c3ccc(-c4ccccc4)s3)N(Nc3ccccc3)C2C(=O)N1c1ccccc1 (centres undefined) = 0.355
C=CC[C@]1(C(N)=O)N=C(c2ccc(OCCCO)cc2)O[C@H]1c1ccccc1 = -0.953

// moving on: another record for z-score
Request: Return reported z-score; argument: O=C1C2C=CC(C(O)c3ccc4c(c3)OCO4)N(Nc3ccc([N+](=O)[O-])cc3)C2C(=O)N1c1ccccc1 (centres undefined)
Result: 1.36

* * *

ASSAY_COMMENT: probe aInhba binding on compound microarray – biochemical, small-molecule microarray, 635/667 nm fluorescence, primary screen (AID 1148);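 further: score merges 667nm spot fluorescence with signal-to-noise for antibody binding to printed compounds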
ASSAY_CONTEXT: higher = more signal
In this section we review reported composite z-score values for a set of compounds.
Answer field: number only, no words.

Request: Given the entry "COCCOC(=O)N1C(=O)[C@@]2(c3cc(C#CC4(O)CCCCCC4)ccc31)[C@H](C(=O)Nc1nc3ccccc3s1)[C@H]1C(=O)O[C@H](c3ccccc3)[C@H](c3ccccc3)N1[C@@H]2c1ccc(OCCO)cc1" , report its measured composite z-score.
Result: 0.366

Request: Next up: "C=CCNC(=O)[C@H]1[C@@H]2C(=O)O[C@@H](c3ccccc3)[C@@H](c3ccccc3)N2[C@@H](c2ccc(O)cc2)[C@]12C(=O)Nc1ccc(C#CCCO)cc12"
Result: -0.152

Request: CS(=O)(=O)CCOC(=O)C1=CC(CCCO)=CC(C2CC2)N(Cc2cc3c(cc2Br)OCO3)C=C1C(=O)OCCS(C)(=O)=O (stereo not drawn)
Result: -0.0695

Request: Queued: "O=C(NC1CC1)[C@@H]1c2ccccc2C(=O)N(Cc2cc(F)cc(C(F)(F)F)c2)[C@H]1c1ccc(CO)cc1"
Result: -0.0468

Request: Quick one: O=C1C2C=CC(C(O)c3c(F)cccc3Cl)N(Nc3ccccc3F)C2C(=O)N1c1ccccc1 (stereo not drawn)
Result: 0.143

Request: Input "CC(C)OC(=O)C=C1C[C@@H](c2cccc(Cl)c2)O[C@@H](c2cccc(Cl)c2)O1"
Result: 0.0956

Request: For "CCOC(=O)C[C@H]1[C@H](OC(=O)c2cc3ccccc3oc2=O)[C@@H](NC(=O)CC(C)C)c2cc(OCCCO)ccc2N1C(=O)c1ccccc1" then?
Result: -0.0986

Request: What do you get for "COc1ccc([C@H]2C[C@H]3C(I)=C[C@@H]2C(=O)[C@]32CO2)cc1" ?
Result: -0.152

* * *

Reported composite z-score is given for each of the following compounds.
ASSAYED_SYSTEM: Neurogenic locus notch homolog protein 3 (Homo sapiens) (UniProt Q9UM47)
Sequence (Q9UM47 whole entry, looked up): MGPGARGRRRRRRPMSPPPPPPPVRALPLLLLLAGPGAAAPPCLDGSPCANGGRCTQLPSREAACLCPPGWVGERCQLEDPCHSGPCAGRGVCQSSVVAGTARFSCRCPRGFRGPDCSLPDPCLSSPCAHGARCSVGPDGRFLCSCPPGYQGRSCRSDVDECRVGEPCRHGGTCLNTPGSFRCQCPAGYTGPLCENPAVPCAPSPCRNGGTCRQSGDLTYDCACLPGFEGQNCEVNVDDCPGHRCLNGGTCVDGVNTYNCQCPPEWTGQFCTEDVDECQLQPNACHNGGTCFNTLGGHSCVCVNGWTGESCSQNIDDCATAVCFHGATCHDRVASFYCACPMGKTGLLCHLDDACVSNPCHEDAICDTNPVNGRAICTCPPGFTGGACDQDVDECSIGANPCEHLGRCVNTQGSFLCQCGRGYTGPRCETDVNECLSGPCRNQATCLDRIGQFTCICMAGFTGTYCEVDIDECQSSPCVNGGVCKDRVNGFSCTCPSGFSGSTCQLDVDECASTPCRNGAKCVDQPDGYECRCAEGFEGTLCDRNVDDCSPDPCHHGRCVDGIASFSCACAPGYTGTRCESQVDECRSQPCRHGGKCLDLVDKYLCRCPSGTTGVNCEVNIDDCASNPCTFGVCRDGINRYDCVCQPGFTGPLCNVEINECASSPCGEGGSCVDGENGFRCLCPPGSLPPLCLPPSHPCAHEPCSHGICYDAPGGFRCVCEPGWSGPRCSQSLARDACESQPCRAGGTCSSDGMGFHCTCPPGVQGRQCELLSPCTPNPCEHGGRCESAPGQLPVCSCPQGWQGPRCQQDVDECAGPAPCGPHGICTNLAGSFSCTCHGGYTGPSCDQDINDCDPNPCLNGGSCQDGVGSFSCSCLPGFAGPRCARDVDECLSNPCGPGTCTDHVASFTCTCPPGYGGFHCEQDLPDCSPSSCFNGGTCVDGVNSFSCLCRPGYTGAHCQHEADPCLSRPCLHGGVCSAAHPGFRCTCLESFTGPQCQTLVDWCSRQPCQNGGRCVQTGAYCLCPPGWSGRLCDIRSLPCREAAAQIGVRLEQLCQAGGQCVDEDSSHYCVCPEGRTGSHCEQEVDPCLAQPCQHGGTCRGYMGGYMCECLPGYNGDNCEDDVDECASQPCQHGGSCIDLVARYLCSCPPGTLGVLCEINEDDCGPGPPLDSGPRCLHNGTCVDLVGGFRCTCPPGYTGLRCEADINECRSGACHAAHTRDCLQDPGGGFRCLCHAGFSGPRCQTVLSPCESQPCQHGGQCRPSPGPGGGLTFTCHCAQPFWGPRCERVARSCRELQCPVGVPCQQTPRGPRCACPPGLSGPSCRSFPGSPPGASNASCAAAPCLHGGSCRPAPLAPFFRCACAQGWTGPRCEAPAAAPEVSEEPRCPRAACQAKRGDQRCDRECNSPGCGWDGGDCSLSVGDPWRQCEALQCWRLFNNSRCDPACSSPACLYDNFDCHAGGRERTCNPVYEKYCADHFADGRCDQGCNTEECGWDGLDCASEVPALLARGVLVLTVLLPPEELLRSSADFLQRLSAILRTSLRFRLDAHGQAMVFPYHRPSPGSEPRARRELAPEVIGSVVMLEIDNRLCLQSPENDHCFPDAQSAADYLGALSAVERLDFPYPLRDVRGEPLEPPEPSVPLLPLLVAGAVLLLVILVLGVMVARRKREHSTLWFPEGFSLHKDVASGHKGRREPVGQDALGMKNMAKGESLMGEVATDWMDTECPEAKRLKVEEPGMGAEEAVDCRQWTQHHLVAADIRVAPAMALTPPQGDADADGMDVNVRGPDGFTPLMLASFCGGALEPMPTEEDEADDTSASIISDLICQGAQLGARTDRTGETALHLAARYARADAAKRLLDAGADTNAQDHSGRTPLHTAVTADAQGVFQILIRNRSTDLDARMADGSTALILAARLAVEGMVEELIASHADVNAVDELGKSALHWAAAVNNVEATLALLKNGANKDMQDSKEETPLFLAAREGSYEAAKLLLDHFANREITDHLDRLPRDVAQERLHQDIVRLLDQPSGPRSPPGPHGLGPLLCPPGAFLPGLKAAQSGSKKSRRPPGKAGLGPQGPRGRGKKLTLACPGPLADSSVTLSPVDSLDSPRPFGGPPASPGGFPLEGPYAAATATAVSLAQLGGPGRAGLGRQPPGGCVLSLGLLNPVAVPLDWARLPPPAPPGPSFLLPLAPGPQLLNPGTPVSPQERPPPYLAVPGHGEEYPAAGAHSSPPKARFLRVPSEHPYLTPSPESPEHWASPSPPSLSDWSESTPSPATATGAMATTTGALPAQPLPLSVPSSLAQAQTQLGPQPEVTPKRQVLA
ASSAY_COMMENT: small molecules binding NOTCH3 protein – biochemical, 635/667 nm fluorescence, primary screen (AID 1096)
ASSAY_CONTEXT: small-molecule microarray, 635 nm fluorescence, higher = more signal
Lab note: record just the number, no unit beside it.

A selection of reference data follows.
CC[C@@H]1C=C(C(=O)O)[C@H](c2cccc3ccccc23)N1S(=O)(=O)c1ccc(C)cc1 = 0.814
CCCCCCCCCCC(O)C1C=CC2C(=O)NC(=O)C2N1Nc1ccc(Cl)cc1Cl (centres undefined) = 0.102
COCCOC(=O)N1C(=O)[C@@]2(c3cc(C#CCCO)ccc31)[C@H](c1ccc(O)cc1)N1[C@H](c3ccccc3)[C@H](c3ccccc3)OC(=O)[C@H]1[C@@H]2C(=O)N1CCN(c2ncccn2)CC1 = 1.01

Request: # input compound: CCCC1(C(=O)OC)C=C2C(=C(c3ccccc3)C(=O)C2C)CN1 (centres undefined) ; wanted: its composite z-score
Result: 0.0144

Request: Also "COCCOC(=O)N1C(=O)[C@@]2(c3cc(C#CCCO)ccc31)[C@H](c1ccc(OCCO)cc1)N1[C@H](c3ccccc3)[C@H](c3ccccc3)OC(=O)[C@H]1[C@@H]2C(N)=O" , if possible.
Result: 1.08

Request: Now this one: "COc1ccc([C@H]2OC[C@@H]3CCC(=O)N32)cc1"
Result: 1.01

* * *

ASSAYED_SYSTEM: Concanavalin-A (Canavalia ensiformis)
ASSAY_COMMENT: compounds binding concanavalin A lectin – biochemical, small-molecule microarray, Alexa647 label, 635 nm, artefact control for SMM control protein annotation, primary screen (AID 1127);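 further: z combines 667 nm emission intensity with signal-to-noise across three replicate slides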
ASSAY_CONTEXT: ConA-A647 binding fluorescence, higher = more signal
The threshold is inclusive: composite z-score of exactly 0.2 counts as Met; values below receive Not met.

CC(C)N1CC=CC23O[C@@H]4C=CCOC(=O)[C@@H]4[C@H]2C(=O)N(CCCCCO)[C@@H]3C1=O (stereo partly drawn) = Met

Request: Is reported composite z-score greater than or equal to 0.2 here: "CCOC(=O)C[C@H]1[C@H](OC(=O)c2ccc(C(=O)c3ccccc3)cc2)[C@@H](NC(=O)c2ccccc2)c2cc(OCCCO)ccc2N1C(=O)c1ccccc1"
Result: Met

* * *

Tested on: Inhibin beta A chain (activin A)
ASSAY_COMMENT: small molecules binding activin A – biochemical, small-molecule microarray, 635 nm fluorescence scan, primary screen (AID 1107);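 further: mouse activin A protein probed at 4.33 µg/mL on printed slides; score merges bound-protein fluorescence near 667 nm with spot signal-to-noise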
ASSAY_CONTEXT: INHBA, higher = more signal
Is composite z-score at least 0.8? Then Criterion met. If not, Criterion not met.

[N-]=[N+]=NCc1ccccc1[C@@H]1OC(c2ccc(OCCCO)cc2)=N[C@]1(CCS(=O)(=O)c1ccccc1)C(=O)N1CCOCC1 = Criterion met
C=CCOC(=O)[C@H]1[C@@H]2C(=O)O[C@@H](c3ccccc3)[C@@H](c3ccccc3)N2[C@@H](c2ccc(OCCOC(=O)[C@@H]3C[C@@H]4C(=O)N5CCC[C@H]5C(=O)N4[C@@H]3c3cccc(OCCO)c3)cc2)[C@]12C(=O)Nc1ccc(I)cc12 = Criterion not met
NCCCCCCNC(=O)[C@H]1C[C@H]2C(=O)N[C@@H](Cc3ccccc3)C(=O)N2[C@H]1c1cccc(OCCO)c1 = Criterion not met
C#CCN1[C@@H](Cc2ccc(O)cc2)C(=O)O[C@H](Cc2ccccc2)[C@@H]1/C=C/C1CC1 = Criterion not met
O=C1C2C=CC(C(O)c3ccc(F)cc3)N(Nc3ccc([N+](=O)[O-])cc3)C2C(=O)N1c1ccccc1 (stereo not drawn) = Criterion not met

Request: Dear colleague, could you confirm whether "CCCC=C(CCC)[C@@H](NS(=O)(=O)c1ccc(Cl)cc1)c1ccc(C(=O)OC)cc1" has composite z-score at or above 0.8?
Result: Criterion not met

Request: Record: "COCC(=C=CC[C@H](O)c1cccc(OCCO)c1)CCO"
Result: Criterion not met

Request: What would you report for "NC(=O)[C@@]1(Cc2ccccc2)N=C(c2ccc(OCCCO)cc2)O[C@H]1c1ccccc1" ?
Result: Criterion met

Request: Follow-up entry: "CCOC(=O)C1=C[C@@H](C(C)C)N(S(=O)(=O)c2ccc(C)cc2)[C@H]1c1ccccc1F"
Result: Criterion not met

* * *

ASSAY_COMMENT: binders from COS7 lysate, DM2A8 probe, primary screen, torsin A project, cell lysate, small-molecule microarray, fluorescence 635/667 (AID 1065)
ASSAY_CONTEXT: higher = more signal, COS7 lysate expressing mutant human TOR1A
This listing pairs molecules with measured composite z-score.
Please reply with the number alone, leaving off any unit.

Request: Suppose we examine the molecule CC1CC/C=C\[C@H]2OC34C=CCN(Cn5nnc6ccccc65)C(=O)[C@H]3N(CCCCCO)C(=O)[C@@H]4C2C(=O)O1 (stereo not given in full) ; what composite z-score value has been reported?
Result: -0.67

Request: Next entry: "C[N+](C)(C)CCCCCCNC(=O)[C@H]1C[C@H]2C(=O)N[C@@H](Cc3ccccc3)C(=O)N2[C@H]1c1cccc(OCCO)c1"
Result: 0.652

Request: Thanks! And "[N-]=[N+]=Nc1ccccc1C[C@]1(C(=O)N2CCCCC2)COC(c2ccc(OCCCO)cc2)=N1" ?
Result: 0.0405

Request: Same thing, different molecule: "NC(=O)[C@@]1(Cc2ccccc2)N=C(c2ccc(OCCCO)cc2)O[C@H]1c1ccccc1"
Result: -0.154

Request: Another: "NC(=O)[C@@H]1[C@H]2C(=O)O[C@H](c3ccccc3)[C@H](c3ccccc3)N2[C@H](c2ccc(OCCO)cc2)[C@@]12C(=O)Nc1ccc(C#CC3=CCCCC3)cc12"
Result: 0.18

Request: Moving on to the next molecule: "COc1ccc([Si](C)(C)[C@@H]2[C@@H](CCn3cc(CCO)nn3)O[C@]3(C(=O)N(Cc4cccc(N5C(=O)c6cccc7cccc5c67)c4)c4ccccc43)[C@H]2C)cc1"
Result: -0.179

Request: Please give the result for "COC(=O)[C@@]1(Cc2ccc(OC)cc2)[C@H]2c3cc(C(=O)N(C)C)n(Cc4ccc(C(F)(F)F)nc4)c3C[C@H]2CN1C(=O)c1ccccc1" too.
Result: 0.114

Request: Note, next up: "CO[C@H]1O[C@H](CO)[C@@H](OC(=O)Nc2ccc(Br)cc2)[C@@H]2OC(=O)[C@H](Cc3cccc(Br)c3)C/C=C/C[C@@H](Cc3cccc(Br)c3)C(=O)O[C@@H]12"
Result: -0.0034

Request: Also check "COC(=O)[C@@]1(Cc2ccc(OC)cc2)[C@H]2c3cc(C(=O)N4CCCC4)n(CCc4ccc(O)c(O)c4)c3C[C@H]2CN1C(=O)c1ccccc1"
Result: 0.269
